Biological target: factor VIIa/tissue factor (Homo sapiens, UniProt P08709)
Construct: human factor VIIa and TF (5 nM and 10 nM, respective final concentration)
Sequence (P08709 213-466 limits assumed): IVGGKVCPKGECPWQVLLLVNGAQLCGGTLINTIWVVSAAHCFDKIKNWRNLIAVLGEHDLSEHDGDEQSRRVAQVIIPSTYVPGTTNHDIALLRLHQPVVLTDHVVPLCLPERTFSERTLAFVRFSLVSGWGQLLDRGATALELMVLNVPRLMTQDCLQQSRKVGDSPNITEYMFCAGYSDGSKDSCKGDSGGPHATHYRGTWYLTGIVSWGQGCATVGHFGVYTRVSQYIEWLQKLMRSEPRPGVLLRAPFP
Sequence (P08709 61-212 limits assumed): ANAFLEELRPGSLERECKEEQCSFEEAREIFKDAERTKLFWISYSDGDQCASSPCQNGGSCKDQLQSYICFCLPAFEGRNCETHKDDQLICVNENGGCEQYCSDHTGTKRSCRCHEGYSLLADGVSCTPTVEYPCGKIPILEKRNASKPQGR
Sequence (P13726 33-295 partner): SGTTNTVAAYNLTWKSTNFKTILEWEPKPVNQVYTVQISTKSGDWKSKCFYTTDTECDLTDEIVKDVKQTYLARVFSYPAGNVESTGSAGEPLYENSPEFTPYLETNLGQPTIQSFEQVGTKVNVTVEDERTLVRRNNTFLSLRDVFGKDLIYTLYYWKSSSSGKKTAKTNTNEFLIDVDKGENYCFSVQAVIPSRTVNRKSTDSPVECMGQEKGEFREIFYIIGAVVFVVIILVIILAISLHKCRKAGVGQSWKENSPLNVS
Test: Factor VIIa (FVIIa) chromogenic assay
Details: human factor VIIa 5 nM and TF 10 nM, chromogenic substrate S-2288 500 μM, 15 min preincubation, 25° C., pH 8.15
MEASURED_PARAMETER: Ki (nM)

>>> result_number("C=CCOC(=O)N[C@@H](Cc1ccc(C(=N)N)cc1)C(=O)N[C@@H](CCC(=O)O)C(=O)NCCCNS(=O)(=O)c1cc(Cl)cc(Cl)c1")
680
>>> result_number("C=CCOC(=O)N[C@@H](Cc1ccc(C(=N)N)cc1)C(=O)N[C@@H](CCC(=O)O)C(=O)NCc1cccc(CNS(=O)(=O)C=Cc2ccccc2)c1")
1460
>>> result_number("C=CCOC(=O)N[C@@H](Cc1ccc(C(=N)N)cc1)C(=O)N[C@@H](CCC(=O)O)C(=O)NCc1cccc(CNS(=O)(=O)c2ccc(OC)cc2)c1")
680
>>> result_number("C=CCOC(=O)N[C@@H](Cc1ccc(C(=N)N)cc1)C(=O)N[C@@H](CCC(=O)O)C(=O)NCc1cccc(CNS(=O)(=O)c2ccc(Cl)s2)c1")
890
>>> result_number("C=CCOC(=O)NC(Cc1ccc(C(=N)N)cc1)C(=O)NC(CCC(=O)O)C(=O)NCc1ccc(O)cc1O (stereo not drawn)")
700
>>> result_number("C=CCOC(=O)N[C@@H](Cc1ccc(C(=N)N)cc1)C(=O)N[C@@H](CCC(=O)O)C(=O)NCCc1ccc(N)cc1")
800
